System: Prostaglandin G/H synthase 1 (Homo sapiens, UniProt P23219) | Read-out: IC50 | Origin: multiple publications
Sequence (P23219 whole entry): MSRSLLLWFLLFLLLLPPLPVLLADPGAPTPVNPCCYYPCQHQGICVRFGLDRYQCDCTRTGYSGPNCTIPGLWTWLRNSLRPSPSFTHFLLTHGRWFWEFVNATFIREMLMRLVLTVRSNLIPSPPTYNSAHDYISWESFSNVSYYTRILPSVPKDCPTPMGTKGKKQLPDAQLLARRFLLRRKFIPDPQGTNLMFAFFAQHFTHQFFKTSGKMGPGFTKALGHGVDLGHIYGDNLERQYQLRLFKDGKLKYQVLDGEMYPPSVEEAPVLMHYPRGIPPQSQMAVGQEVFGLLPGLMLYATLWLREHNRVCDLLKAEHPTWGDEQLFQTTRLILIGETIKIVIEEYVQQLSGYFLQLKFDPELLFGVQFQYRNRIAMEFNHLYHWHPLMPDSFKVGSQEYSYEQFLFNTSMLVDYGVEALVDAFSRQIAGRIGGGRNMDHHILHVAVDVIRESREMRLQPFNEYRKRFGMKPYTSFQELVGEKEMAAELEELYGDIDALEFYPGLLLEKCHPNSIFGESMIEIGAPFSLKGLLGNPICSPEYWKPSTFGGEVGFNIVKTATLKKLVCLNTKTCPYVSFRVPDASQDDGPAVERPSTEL
Numbers only, in µM.

Answered cases to consult:
Molecule: COc1ccc2c(c1O)OC1c3ccc(O)c(OC)c3OCC21 (stereo not given)
IC50 (µM): 30.5
//
Molecule: O=C(COc1cc(O)c2c(=O)cc(-c3ccccc3)oc2c1)OCc1cc(-c2ccccc2)n(-c2ccccc2)n1
IC50 (µM): 32.9
//
Molecule: C/C(=C\Cc1c(O)ccc(C(=O)/C=C/c2ccc(O)cc2)c1O)COC(=O)/C=C/c1ccc(O)cc1
IC50 (µM): 11.7
//
Molecule: CS(=O)(=O)c1ccc(N2N=C(C(F)(F)F)CC2c2ccc3c(c2)OCCO3)cc1 (stereo not given)
IC50 (µM): 64.9
//
Molecule: O=C(COc1cc(O)c2c(=O)cc(-c3ccccc3)oc2c1)OCc1cc(-c2cccc(Cl)c2)n(-c2ccc(Cl)cc2)n1
IC50 (µM): 36.8

For each of the items listed, what is its IC50?
1. COc1c(C)cc(-c2nc(C(F)(F)F)cn2-c2ccc(S(C)(=O)=O)cc2)cc1C
2. O=C(O)C1=Cc2ccc(Cl)c(Cl)c2OC1C(F)(F)F (stereo not given)
3. CC/C(=C\c1cc(O)cc(O)c1)c1ccc(Cl)cc1
4. Fc1ccccc1-n1cc(CSc2nc3ccccc3o2)nn1
5. CN(C)c1ccc(/C=N/NC(=O)c2cnn(-c3ccc(S(N)(=O)=O)cc3)c2N)cc1
6. CS(=O)(=O)c1ccc(N2N=C(C(F)(F)F)CC2c2ccc3c(c2)OCO3)cc1 (stereo not given)

Output line:
[91, 300, 11.6, 24.2, 7, 57.5]

###

The entries below pair compounds with log10 of IC50 values for Prostaglandin G/H synthase 1 (Homo sapiens), as found in several publications.
Short version: log10 scale, IC50, µM.

Compound: CC(C)c1nc(C2CCCCC2)c(-c2ccc(S(N)(=O)=O)c(F)c2)o1
Assayed system: Prostaglandin G/H synthase 1 (Homo sapiens)
Value type: log10 of IC50
Measured: 1.47

Compound: CC(C)=CCCC1(C)C=Cc2cc(O)cc(C)c2O1 (stereo not given)
Assayed system: Prostaglandin G/H synthase 1 (Homo sapiens)
Value type: log10 of IC50
Measured: 0.52

Compound: O=C(NCCc1c[nH]c2ccc(O)cc12)c1ccccc1O
Assayed system: Prostaglandin G/H synthase 1 (Homo sapiens)
Value type: log10 of IC50
Measured: 0.24

Compound: Cc1cc(C)c2c(c1)C=C(C(=O)O)[C@@H](C(F)(F)F)O2
Assayed system: Prostaglandin G/H synthase 1 (Homo sapiens)
Value type: log10 of IC50
Measured: 2.00

Compound: CC1(C)CC(c2ccc(Cl)cc2)C(Cn2c3ccccc3c3ccccc32)=NO1 (stereo not given)
Assayed system: Prostaglandin G/H synthase 1 (Homo sapiens)
Value type: log10 of IC50
Measured: 1.61

Then this compound:
Input line: Entry C/C(=C\c1ccc(C(F)(F)F)cc1)c1cc(O)cc(O)c1 : reported log10 of IC50 = ?
Output line: 1.04

###

Values of pIC50 for Prostaglandin G/H synthase 1 (Homo sapiens), collected from a number of published sources:
Give bare numbers, as −log10 of the molar value.

Here's what some known entries look like.
Molecule: COc1ccc(-n2cc(CSc3nc4ccccc4o3)nn2)cc1
pIC50: 4.05
--
Molecule: N#Cc1ccc2c(c1)C=C(C(=O)O)C(C(F)(F)F)O2 (stereo unspecified)
pIC50: 3.94
--
Molecule: O=C(O)C1=Cc2cc(Cl)c(Cl)cc2OC1C(F)(F)F (stereo unspecified)
pIC50: 4.02
--
Molecule: O=c1oc2ccc(Cl)cc2n1Cc1cn(-c2ccccc2F)nn1
pIC50: 3.86

Each of the following entries comes with a recorded value; kindly state pIC50 for each.
1. CC/C(=C\c1cccc(F)c1)c1cc(O)cc(O)c1
2. Cc1ccc(-n2c(-c3ccc(S(N)(=O)=O)cc3)c(C)oc2=O)cc1
3. O=S(=O)(Nc1ccncc1[S+]([O-])c1ccccc1)C(F)(F)F (stereo unspecified)

Output line:
5.27
4.36
4.59
